Target: T1, Sortilin-6His (Homo sapiens (Human), UniProt Q99523 78-755)
T1 construct: In MST it was labelled non-covalently with RED-tris-NTA; also called soluble ectodomain of sortilin-6his; fluorescent sortilin-6his
T1 sequence (Q99523 78-755 V650M limits assumed): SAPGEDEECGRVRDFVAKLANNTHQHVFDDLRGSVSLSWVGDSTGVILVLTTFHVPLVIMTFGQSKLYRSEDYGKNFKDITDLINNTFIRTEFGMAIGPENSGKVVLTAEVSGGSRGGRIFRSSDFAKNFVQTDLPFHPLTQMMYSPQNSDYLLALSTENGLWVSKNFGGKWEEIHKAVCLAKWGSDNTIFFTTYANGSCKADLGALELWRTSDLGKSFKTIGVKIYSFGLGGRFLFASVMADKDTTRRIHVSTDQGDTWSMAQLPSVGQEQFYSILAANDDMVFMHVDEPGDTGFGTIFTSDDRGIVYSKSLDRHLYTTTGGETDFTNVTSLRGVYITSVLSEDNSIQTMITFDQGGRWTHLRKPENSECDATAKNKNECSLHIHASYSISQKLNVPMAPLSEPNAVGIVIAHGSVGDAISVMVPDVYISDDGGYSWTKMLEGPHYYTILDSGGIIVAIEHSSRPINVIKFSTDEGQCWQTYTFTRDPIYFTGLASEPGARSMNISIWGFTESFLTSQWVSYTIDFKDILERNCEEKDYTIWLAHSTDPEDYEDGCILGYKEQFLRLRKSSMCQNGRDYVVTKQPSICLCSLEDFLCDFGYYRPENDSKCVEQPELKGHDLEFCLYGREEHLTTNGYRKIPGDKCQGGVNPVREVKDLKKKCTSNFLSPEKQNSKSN
Experiment: MST on labelled sortilin-6his ectodomain; KD score: ++ <100 nM, + 100-2000 nM
*: point of attachment. Biotin = O=C1N[C@H]2[C@H](CS[C@H]2CCCCC(=O)*)N1
recorded-metric: KD

Biotin-GGSGGGGRQLL-OH (SMILES CC(C)C[C@H](NC(=O)[C@H](CC(C)C)NC(=O)[C@H](CCC(N)=O)NC(=O)[C@H](CCCNC(=N)N)NC(=O)CNC(=O)CNC(=O)CNC(=O)CNC(=O)[C@H](CO)NC(=O)CNC(=O)CNC(=O)CCCC[C@@H]1SC[C@@H]2NC(=O)N[C@@H]21)C(=O)O) [Biotin-GGSGGGGRQLL-OH]    < 100 nM
Biotin-GGSGGGGSGGGGSFQLL-OH (SMILES CC(C)C[C@H](NC(=O)[C@H](CC(C)C)NC(=O)[C@H](CCC(N)=O)NC(=O)[C@H](Cc1ccccc1)NC(=O)[C@H](CO)NC(=O)CNC(=O)CNC(=O)CNC(=O)CNC(=O)[C@H](CO)NC(=O)CNC(=O)CNC(=O)CNC(=O)CNC(=O)[C@H](CO)NC(=O)CNC(=O)CNC(=O)CCCC[C@@H]1SC[C@@H]2NC(=O)N[C@@H]21)C(=O)O) [Biotin-GGSGGGGSGGGGSFQLL-OH]    100 to 2000 nM
Biotin-GGSGGFQLL-OH (SMILES CC(C)C[C@H](NC(=O)[C@H](CC(C)C)NC(=O)[C@H](CCC(N)=O)NC(=O)[C@H](Cc1ccccc1)NC(=O)CNC(=O)CNC(=O)[C@H](CO)NC(=O)CNC(=O)CNC(=O)CCCC[C@@H]1SC[C@@H]2NC(=O)N[C@@H]21)C(=O)O) [Biotin-GGSGGFQLL-OH]    < 100 nM
Biotin-GGSGGGGFQLL-OH (SMILES CC(C)C[C@H](NC(=O)[C@H](CC(C)C)NC(=O)[C@H](CCC(N)=O)NC(=O)[C@H](Cc1ccccc1)NC(=O)CNC(=O)CNC(=O)CNC(=O)CNC(=O)[C@H](CO)NC(=O)CNC(=O)CNC(=O)CCCC[C@@H]1SC[C@@H]2NC(=O)N[C@@H]21)C(=O)O) [Biotin-GGSGGGGFQLL-OH]    < 100 nM

Hi there! I need KD for each item below, if you can.
1. Biotin-GGSRQLL-OH (SMILES CC(C)C[C@H](NC(=O)[C@H](CC(C)C)NC(=O)[C@H](CCC(N)=O)NC(=O)[C@H](CCCNC(=N)N)NC(=O)[C@H](CO)NC(=O)CNC(=O)CNC(=O)CCCC[C@@H]1SC[C@@H]2NC(=O)N[C@@H]21)C(=O)O) [Biotin-GGSRQLL-OH]
2. Biotin-GGRQLL-OH (SMILES CC(C)C[C@H](NC(=O)[C@H](CC(C)C)NC(=O)[C@H](CCC(N)=O)NC(=O)[C@H](CCCNC(=N)N)NC(=O)CNC(=O)CNC(=O)CCCC[C@@H]1SC[C@@H]2NC(=O)N[C@@H]21)C(=O)O) [Biotin-GGRQLL-OH]
3. Biotin-GGSGGGGSGFQLL-OH (SMILES CC(C)C[C@H](NC(=O)[C@H](CC(C)C)NC(=O)[C@H](CCC(N)=O)NC(=O)[C@H](Cc1ccccc1)NC(=O)CNC(=O)[C@H](CO)NC(=O)CNC(=O)CNC(=O)CNC(=O)CNC(=O)[C@H](CO)NC(=O)CNC(=O)CNC(=O)CCCC[C@@H]1SC[C@@H]2NC(=O)N[C@@H]21)C(=O)O) [Biotin-GGSGGGGSGFQLL-OH]

["100 to 2000 nM", "< 100 nM", "< 100 nM"]
